Taken from ChEMBL document CHEMBL2384988.

Assay: cells
Details: Homo sapiens
Description: Cytotoxicity against human MCF7-neo/Her2 cells after 3 to 4 days by CellTitre-Glo assay
Each entry below carries its reported IC50.
Give the value in nM but do not write nM after it.

Ask: IC50 for Cc1nc(-c2cn3c(n2)-c2ccc(-c4cnn(CCO)c4)cc2OCC3)n(C(C)C)n1 ?
Result: 138

* * *

Assay: Plasma clearance in nude mouse at 1 mg/kg, iv and 25 mg/kg, po
Assay type: ADME, organism-based
observationType: clearance (mL/min/kg)
Respond with the bare value in mL/min/kg.

Ask: Tell me the measured clearance of Cc1nc(-c2cn3c(n2)-c2ccc(-c4cnn(C(C)(C)C(N)=O)c4)cc2OCC3)n(C(C)C)n1 , please.
Result: 2.7

* * *

Target: Phosphatidylinositol 4,5-bisphosphate 3-kinase catalytic subunit alpha isoform (Homo sapiens, UniProt P42336)
Sequence (P42336 whole entry, canonical isoform): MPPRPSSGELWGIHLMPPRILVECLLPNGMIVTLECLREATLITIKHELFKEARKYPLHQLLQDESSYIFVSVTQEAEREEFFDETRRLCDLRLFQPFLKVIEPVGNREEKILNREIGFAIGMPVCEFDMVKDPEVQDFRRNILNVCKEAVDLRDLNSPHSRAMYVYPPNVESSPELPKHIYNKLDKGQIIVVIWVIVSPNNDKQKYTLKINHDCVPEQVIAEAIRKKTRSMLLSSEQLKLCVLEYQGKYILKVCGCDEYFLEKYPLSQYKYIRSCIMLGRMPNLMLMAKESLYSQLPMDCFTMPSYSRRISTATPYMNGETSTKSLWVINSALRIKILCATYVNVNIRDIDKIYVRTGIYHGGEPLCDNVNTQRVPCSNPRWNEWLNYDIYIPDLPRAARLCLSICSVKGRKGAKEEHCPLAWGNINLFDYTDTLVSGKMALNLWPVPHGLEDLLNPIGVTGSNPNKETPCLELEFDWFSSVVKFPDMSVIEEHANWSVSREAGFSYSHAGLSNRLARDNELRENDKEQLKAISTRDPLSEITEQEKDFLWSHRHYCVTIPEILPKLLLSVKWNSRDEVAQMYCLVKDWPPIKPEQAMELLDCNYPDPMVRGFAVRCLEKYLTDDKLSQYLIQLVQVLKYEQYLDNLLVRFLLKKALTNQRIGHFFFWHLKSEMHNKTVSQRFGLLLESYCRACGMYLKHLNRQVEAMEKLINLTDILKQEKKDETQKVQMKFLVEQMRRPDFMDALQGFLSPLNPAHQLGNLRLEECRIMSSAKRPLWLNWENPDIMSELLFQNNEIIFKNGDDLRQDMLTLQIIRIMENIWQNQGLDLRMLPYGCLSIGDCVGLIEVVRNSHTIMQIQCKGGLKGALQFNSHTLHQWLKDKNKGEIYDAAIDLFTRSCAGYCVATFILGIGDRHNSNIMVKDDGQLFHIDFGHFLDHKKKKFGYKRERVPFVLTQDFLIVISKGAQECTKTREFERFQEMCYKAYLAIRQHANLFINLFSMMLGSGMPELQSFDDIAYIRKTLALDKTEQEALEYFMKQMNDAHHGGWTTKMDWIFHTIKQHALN
observationType: log10 of IC50 (log10 of the value in nM)
Would you kindly interpret these values as log10 of IC50 expressed in nM?

Example cases with answers are listed next.
{"recordSmiles": "Cc1nc(-c2cn3c(n2)-c2ccc(-c4cnn(CCO)c4)cc2OCC3)n(C(C)C)n1", "experimentalResult": 0.65}
{"recordSmiles": "CC(C)n1ncnc1-c1cn2c(n1)-c1ccc(-c3cnn(CCO)c3)cc1OCC2", "experimentalResult": 0.73}
{"recordSmiles": "Cc1nc(-c2cn3c(n2)-c2ccc(-c4cnn(C5CN(C(=O)[C@H](C)O)C5)c4)cc2OCC3)n(C(C)C)n1", "experimentalResult": -0.03}
{"recordSmiles": "OCCn1cc(-c2ccc3c(c2)OCCn2cc(-c4ncnn4CC(F)(F)F)nc2-3)cn1", "experimentalResult": 0.46}
{"recordSmiles": "Cc1nc(-c2cn3c(n2)-c2ccc(-c4cnn(CCN5CCOCC5)c4)cc2OCC3)n(C(C)C)n1", "experimentalResult": 1.54}

Ask: Would you kindly share the measured log10 of IC50 for Cc1nc(-c2cn3c(n2)-c2ccc(-c4cnn(C5CN(CCO)C5)c4)cc2OCC3)n(C(C)C)n1 ?
Result: 0.15

Ask: And then CC(C)n1ncnc1-c1cn2c(n1)-c1ccc(-c3cnn(CC(C)(C)O)c3)cc1OCC2 , what is it?
Result: 0.97

Ask: Please do the same for Cc1nc(-c2cn3c(n2)-c2ccc(-c4cnn(C)c4)cc2OCC3)n(C(C)C)n1 as well.
Result: -0.15
